Tested on: PT22AV
quantityKind: MIC (µg/mL)
Report the figure in µg/mL without appending any unit label.

Sample records with MIC:
compound | unitSymbol | MIC
CCCC(Cn1cncn1)c1ccc(Cl)cc1Cl (stereo not drawn) [Penconazol] | µg/mL | 200
C=CCOC(Cn1ccnc1)c1ccc(Cl)cc1Cl (stereo not drawn) [Imazalil] | µg/mL | 300
c1ccc2[nH]c(-c3cscn3)nc2c1 [Thiabendazole] | µg/mL | 1000
S1SSSSSSS1 [Sulfur] | µg/mL | 2000
CC(C)(C)C(O)(CCc1ccc(Cl)cc1)Cn1cncn1 (stereo not drawn) [Tebuconazole] | µg/mL | 100

With those in mind, consider the next compound.
Suppose we examine the compound COC(=O)Nc1nc2ccccc2[nH]1 [Carbendazim] ; what MIC value has been reported?
1000
